- Experimental Target: Fatty-acid amide hydrolase 1 (Rattus norvegicus, UniProt P97612)
- Sequence (P97612 whole entry): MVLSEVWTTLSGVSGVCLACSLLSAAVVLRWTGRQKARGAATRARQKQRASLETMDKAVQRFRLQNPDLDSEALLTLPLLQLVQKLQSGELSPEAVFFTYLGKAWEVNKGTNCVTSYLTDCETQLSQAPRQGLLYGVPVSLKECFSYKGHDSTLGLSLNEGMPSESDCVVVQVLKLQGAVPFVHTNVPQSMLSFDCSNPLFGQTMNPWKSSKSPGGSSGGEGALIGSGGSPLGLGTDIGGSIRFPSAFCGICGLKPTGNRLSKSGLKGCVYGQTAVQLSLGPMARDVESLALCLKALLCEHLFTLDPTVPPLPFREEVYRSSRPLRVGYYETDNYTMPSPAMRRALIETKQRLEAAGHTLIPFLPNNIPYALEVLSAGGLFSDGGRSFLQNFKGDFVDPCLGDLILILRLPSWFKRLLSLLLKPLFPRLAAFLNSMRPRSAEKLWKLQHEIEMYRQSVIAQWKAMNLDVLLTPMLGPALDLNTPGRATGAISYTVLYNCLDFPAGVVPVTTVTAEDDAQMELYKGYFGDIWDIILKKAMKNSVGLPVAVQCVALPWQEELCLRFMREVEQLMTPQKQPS
- Assay Notes: Inhibition of FAAH in rat brain membrane assessed as [3H]anandamide hydrolysis
- Type: cell membranes
- Conditions Used: read-out: IC50
Measure Name: log10 IC50 (log10 of the value in nM)

Smiles Representation: O=C(NC1CCCC1)Oc1cccc(-c2ccccc2)c1
Measured Value: 1.53

Smiles Representation: O=C(NCCCCCCCCc1ccccc1)Oc1cccc(-c2ccccc2)c1
Measured Value: 0.73

Smiles Representation: O=C(Nc1ccccc1)Oc1cccc(-c2ccccc2)c1
Measured Value: 3.60

Smiles Representation: O=C1OCCN1C(=O)Oc1cccc(-c2ccccc2)c1
Measured Value: 4.46

Smiles Representation: O=C(NCc1ccc2ccccc2c1)Oc1cccc(-c2ccccc2)c1
Measured Value: 0.72

Smiles Representation: CCCCCCNC(=O)Oc1cccc(-c2ccccc2)c1
Measured Value: 1.76

* * *

- Experimental Target: Fatty-acid amide hydrolase 1 (Rattus norvegicus)
- Assay Notes: Inhibition of FAAH in rat brain membrane assessed as [3H]anandamide hydrolysis
- Assay type: cell membranes
- Conditions Used: read-out: IC50
Property: IC50; scope: individual compounds
Measure Name: IC50

Compound: O=C(NC1CCC1)Oc1cccc(-c2ccccc2)c1
Measure Name: IC50
Measured Value: 0.054 µM

Compound: CC(C)NC(=O)Oc1cccc(-c2ccccc2)c1
Measure Name: IC50
Measured Value: 0.521 µM

Compound: O=C(NCCc1ccccc1)Oc1cccc(-c2ccccc2)c1
Measure Name: IC50
Measured Value: 0.481 µM

Compound: O=C(NC12CC3CC(CC(C3)C1)C2)Oc1cccc(-c2ccccc2)c1
Measure Name: IC50
Measured Value: 4.09 µM

Compound: O=C(NC1CC2CCC1C2)Oc1cccc(-c2ccccc2)c1 (racemic)
Measure Name: IC50
Measured Value: 0.244 µM

Compound: O=C(NCCCCCCc1ccccc1)Oc1cccc(-c2ccccc2)c1
Measure Name: IC50
Measured Value: 0.013 µM
